Target: T1, human FLT3/FLK2 receptor protein (human, UniProt P36888 27-993)
T1 construct: whole, on cells; Cell-surface target in the flow cytometry experiments (REH cells and SP2/0-Hu-FLT3 cells); also called CD135; Hu-FLT3
T1 sequence (looked up): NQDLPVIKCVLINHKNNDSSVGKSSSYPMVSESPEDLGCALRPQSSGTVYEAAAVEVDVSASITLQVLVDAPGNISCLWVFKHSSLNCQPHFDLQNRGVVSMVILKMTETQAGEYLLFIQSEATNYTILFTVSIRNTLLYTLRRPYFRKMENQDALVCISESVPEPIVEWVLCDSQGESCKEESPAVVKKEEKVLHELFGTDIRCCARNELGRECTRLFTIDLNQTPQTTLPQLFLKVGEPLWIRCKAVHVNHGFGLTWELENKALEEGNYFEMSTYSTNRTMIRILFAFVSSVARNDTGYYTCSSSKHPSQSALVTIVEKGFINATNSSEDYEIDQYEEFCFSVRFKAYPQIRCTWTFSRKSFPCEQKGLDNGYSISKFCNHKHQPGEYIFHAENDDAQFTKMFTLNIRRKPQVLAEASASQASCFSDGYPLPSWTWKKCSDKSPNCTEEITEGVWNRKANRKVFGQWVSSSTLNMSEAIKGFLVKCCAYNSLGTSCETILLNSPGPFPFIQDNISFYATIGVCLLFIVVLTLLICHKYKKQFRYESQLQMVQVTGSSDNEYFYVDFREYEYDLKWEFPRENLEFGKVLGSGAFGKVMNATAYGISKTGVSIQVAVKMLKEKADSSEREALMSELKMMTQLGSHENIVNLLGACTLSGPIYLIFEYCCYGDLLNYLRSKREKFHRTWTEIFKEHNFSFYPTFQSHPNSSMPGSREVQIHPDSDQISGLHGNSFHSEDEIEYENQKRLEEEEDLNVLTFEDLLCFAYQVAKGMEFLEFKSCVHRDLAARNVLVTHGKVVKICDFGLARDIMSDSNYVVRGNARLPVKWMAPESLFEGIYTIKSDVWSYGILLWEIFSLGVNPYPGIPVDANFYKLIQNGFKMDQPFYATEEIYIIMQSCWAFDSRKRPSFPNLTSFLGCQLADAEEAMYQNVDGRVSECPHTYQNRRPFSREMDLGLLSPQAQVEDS
Assay: flow cytometry titration on REH cells; axis printed 'mg/ml', the text gives ng/ml
Listed below: EC50 (read off the curve) values for each entry.

Worked examples, 3 binders total:
MHC1694-1-18BA (antibody, V domains shown, Mouse hybridoma monoclonal antibody; also called Ab1-18New) VH: QVTLKESGPGILQPSQTLSLTCSFSGFSLSTSTMGVGWIRQPSGKGLEWLLHILWNDSKYYNPALKSRLTISKDTYNKQVFLKIANVDTADTATYYCARIVYYSTYVGYFDVWGAGTTVTVSS VL: DIQMTQSPSSLSASLGERVSLTCRASQEISGYLSWLQQKPDGTIKRLIYAASTLHSGVPKRFSGSRSGSDYSLTISRLESEDVADYYCLQYASYPFTFGSGTKLEIR	~0.08 µg/mL
MHC1692-1-23DA (antibody, V domains shown, Mouse hybridoma monoclonal antibody (detected with anti-mouse IgG); also called Ab1-23DA) VH: QVTLKESGPGILQPSQTLSLTCSFSGFSLSTSTMGVGWIRQPSGKGLEWLLHILWNDSKYYNPALKSRLTISKDTYNKQVFLKIANVDTADTATYYCARIVYYSTYVGYFDVWGAGTTVTVSS VL: DIQMTQSPSSLSASLGERVSLTCRASQEISGYLSWLQQKPDGTIKRLIYAASTLHSGVPKRFSGSRSGSDYSLTISRLESEDVADYYCLQYASYPFTFGSGTKLEIR	~0.06 µg/mL
MHC1695-3-30A (antibody, V domains shown, Mouse hybridoma monoclonal antibody) VH: QVTLKESGPGILQPSQTLSLTCSFSGFSLSTSHMGVGWIRQPSGKGLEWLLHILWNDSVYYNPALKSRLTISKDTYNKQVFLKIANVDTADTATYYCARIVYYGISYVGYFDVWGAGTTVTVSS VL: DIQMTQSPSSLSASLGERVSLTCRASQEISGYLSWLQQKPDGTIKRLIYAASTLNSGVPRRFSGSRSGSDYSLTISSLESEDFADYYCLQYASYPFTFGSGTKLEIK	~1 µg/mL

Query binder follows.
Item MHC1696-2-8IA (antibody, V domains shown, Mouse hybridoma monoclonal antibody; also called A281A) VH: EIQLQQSGPELVKPGASVKVSCKASGYSFIDYNMYWVKQSHGKSLEWIGYINPYNGGTSNNQKFKDKATLTVDKSSSTAFMHLNSLTSEDSAVYYCARGTTGDYWGQGTTLTVSS VL: DTVLTQSPATLSVTPGDSVSLSCRASQSISNNLHWYQQKSHESPRLLIKYGFQSISGIPSRFSGSGSGTDFTLRINSVETEDFGMYFCQQTNSWPLTFGAGTKLELK has what recorded EC50 (read off the curve)?
~0.1 µg/mL

Cited source for all entries: patent US20190389955A1
